- Protocol: Lethal dose against mice upon intraperitoneal administration
- Format: toxicity
- Measurement Context: mouse, in vivo, ip
Recorded Metric: LD50

Query: Consider the compound Cc1nc(NCc2cccc(N3CCCCC3)c2)c2cc[nH]c2n1 and give its recorded LD50.
Result: > 500 mg/kg

----------
- Protocol: Lethal dose against mice upon oral administration
- Format: toxicity
- Measurement Context: mouse, in vivo
Recorded Metric: LD50

Query: Complete the entry with LD50 for Cc1nc(NCc2cccc(N3CCCCC3)c2)c2cc[nH]c2n1
Result: > 500 mg/kg

Values from ChEMBL document CHEMBL1128988
